B1: Peroxisome proliferator-activated receptor delta, residues 71 to 145; numbered along this chain, Q03181 (parent)
chain: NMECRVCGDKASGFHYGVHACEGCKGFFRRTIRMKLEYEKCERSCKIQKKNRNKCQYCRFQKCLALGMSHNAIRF

Variants of: B1
measurement_protocol: abundance fitness (aPCA) (normalised: wild type 0, dead -1); higher = more abundant; growth selection in yeast, the domain comes from the species named
condition_summary: Homo sapiens
Kind request: treat -0.2 as inclusive, so abundance fitness at -0.2 or higher is y, anything lower is n.

Please review the following examples before continuing.
NMECRVCGDKASGFHYGVHACEGCKGFFRRTIRMKLEYEKCERSCKIQKKNRNKCQYCRDQKCLALGMSHNAIRF [F60D] ... n
NMECRVCGDKASGFHYGVHACEGCKGFFRRTIRMKLEYEKCERSCKIQKKNRNKCQYCRFQKCLALGMSHNALRF [I73L] ... y
NMECRVCGDKVSGFHYGVHACEGCKGFFRRTIRMKLEYEKCERSCKIQKKNRNKCQYCRFQKCLALGMSHNAIRF [A11V] ... n
NMECRVCADKASGFHYGVHACEGCKGFFRRTIRMKLEYEKCERSCKIQKKNRNKCQYCRFQKCLALGMSHNAIRF [G8A] ... n

Given NMECRVCGDKASGFHYGVHACEGCKGFFRRTIRMKLEYEKCERHCKIQKKNRNKCQYCRFQKCLALGMSHNAIRF [S44H] , state whether its abundance fitness is at least -0.2. y

Given NMECRVCGDKASGFHYGVHACEGCKGFFRRTIRMKLEYEKCERSCKIQKKNRNKCQYCRFQKCLALNMSHNAIRF [G67N] , state whether its abundance fitness is at least -0.2. n

Given NMECRVCGDKASIFHYGVHACEGCKGFFRRTIRMKLEYEKCERSCKIQKKNRNKCQYCRFQKCLALGMSHNAIRF [G13I] , state whether its abundance fitness is at least -0.2. n

Given NMECRVCGDKASGFHYGVHACEGCKGFFRRTIRMKLEYRKCERSCKIQKKNRNKCQYCRFQKCLALGMSHNAIRF [E39R] , state whether its abundance fitness is at least -0.2. n

Given NMECRVCGDKASGFHYGVHACEGCKGFFRRTIRMKLEYEKCERSCKIQKKNRNKCQYCRFQKCLQLGMSHNAIRF [A65Q] , state whether its abundance fitness is at least -0.2. y

Given NRECRVCGDKASGFHYGVHACEGCKGFFRRTIRMKLEYEKCERSCKIQKKNRNKCQYCRFQKCLALGMSHNAIRF [M2R] , state whether its abundance fitness is at least -0.2. n

Given NMECRVCGRKASGFHYGVHACEGCKGFFRRTIRMKLEYEKCERSCKIQKKNRNKCQYCRFQKCLALGMSHNAIRF [D9R] , state whether its abundance fitness is at least -0.2. n

Given NMECRVCGDKASGFHYGVHACAGCKGFFRRTIRMKLEYEKCERSCKIQKKNRNKCQYCRFQKCLALGMSHNAIRF [E22A] , state whether its abundance fitness is at least -0.2. n

Given NMECRVCGDKASGFHYGVHACEGCKGFFRRTIRMILEYEKCERSCKIQKKNRNKCQYCRFQKCLALGMSHNAIRF [K35I] , state whether its abundance fitness is at least -0.2. n

Given NMECRVCGDKASGFHYGVHACEGCKGFFRRTIRMKLEYEICERSCKIQKKNRNKCQYCRFQKCLALGMSHNAIRF [K40I] , state whether its abundance fitness is at least -0.2. y

Given NMECRVCGDKASGFHYGVHACEGCKGFFRRTIRMKLEYEKCERSCKIQKKNRNKCQYCRFQKCLALGMSKNAIRF [H70K] , state whether its abundance fitness is at least -0.2. y

Given NMECRVCGDKASGFHYGVHACEGCKGFFRRTIRMKLEYEKCERSCKIQKKNRNKCQYCRFQKVLALGMSHNAIRF [C63V] , state whether its abundance fitness is at least -0.2. n

Given NMECRVCGDKASGFHYKVHACEGCKGFFRRTIRMKLEYEKCERSCKIQKKNRNKCQYCRFQKCLALGMSHNAIRF [G17K] , state whether its abundance fitness is at least -0.2. n

Given NMECRVCGDKASGFHYGVHACEGCKGFFRRTIRMKLEYEKCERSCKIQKKNRNKCQYCRFQMCLALGMSHNAIRF [K62M] , state whether its abundance fitness is at least -0.2. n

Given NMECRVCGDKASGFHYGVHNCEGCKGFFRRTIRMKLEYEKCERSCKIQKKNRNKCQYCRFQKCLALGMSHNAIRF [A20N] , state whether its abundance fitness is at least -0.2. n

Given NMECRVCGDKASGFHYGVHACEGCQGFFRRTIRMKLEYEKCERSCKIQKKNRNKCQYCRFQKCLALGMSHNAIRF [K25Q] , state whether its abundance fitness is at least -0.2. y

Given NMECRVCGDKASGFHYGVHACEGCKGFFRRTIRMKLEYEVCERSCKIQKKNRNKCQYCRFQKCLALGMSHNAIRF [K40V] , state whether its abundance fitness is at least -0.2. y

Given NMECRVCGDKASGFHYGVHACEGCKGFFRRTIRMKLEYEKCERSCKIQKKNRNKCQLCRFQKCLALGMSHNAIRF [Y57L] , state whether its abundance fitness is at least -0.2. n

Given NMECRVCGDKASGFHYGVHACEGCKGFFRRTIRMKLEYEKCERSCKIQKKNRNKCQYCRFQKCLALGMSHNQIRF [A72Q] , state whether its abundance fitness is at least -0.2. y

Given NMECRVCGDKASGFHYGVHACEGCKGFFRRTIRMNLEYEKCERSCKIQKKNRNKCQYCRFQKCLALGMSHNAIRF [K35N] , state whether its abundance fitness is at least -0.2. y
